Catalogue of microsomal CLint at 0.8 μM values
METHOD: Intrinsic clearance (Clint) in human liver microsomes
Type: in vitro ADME
RUN PARAMETERS: human, liver microsomes, pH 7.4, human liver microsomes, 0.5 mg/mL protein, NADPH, up to 30 min; first value of human/rat
Your answer should be a plain number; it is taken to be in µL/min/mg.

[2H]c1c([2H])c([2H])c(C#Cc2ccc([C@@H]3S[C@H](CC(=O)NC([2H])([2H])C([2H])([2H])c4ccc(OC([2H])([2H])[2H])c(OCC)c4)C(=O)N3c3cccc(C(N)=O)c3)cc2)c([2H])c1[2H] (single isomer, unassigned) ... 161
[2H]C([2H])([2H])Oc1ccc(C([2H])([2H])C([2H])([2H])NC(=O)C[C@H]2S[C@@H](c3ccc(C#Cc4ccccc4)cc3)N(c3cccc(C(N)=O)c3)C2=O)cc1OCC (single isomer, unassigned) ... 168
[2H]c1c([2H])c([2H])c(C#Cc2c([2H])c([2H])c([C@H]3N(c4cccc(C(N)=O)c4)C(=O)[C@@H](CC(=O)NC([2H])([2H])C([2H])([2H])c4ccc(OC([2H])([2H])[2H])c(OC([2H])([2H])[2H])c4)[S@@+]3[O-])c([2H])c2[2H])c([2H])c1[2H] (single isomer, unassigned) ... 351
[2H]C([2H])(NC(=O)C[C@H]1S[C@@H](c2ccc(C#Cc3ccccc3)cc2)N(c2cccc(C(N)=O)c2)C1=O)C([2H])([2H])c1ccc(OC)c(OC)c1 ... 106
[2H]c1c([2H])c([2H])c(C#Cc2c([2H])c([2H])c([C@H]3N(c4cccc(C(N)=O)c4)C(=O)[C@@H](CC(=O)NC([2H])([2H])C([2H])([2H])c4ccc(OC([2H])([2H])[2H])c(OCC)c4)[S@@+]3[O-])c([2H])c2[2H])c([2H])c1[2H] (single isomer, unassigned) ... 35

microsomal CLint at 0.8 μM recorded for this compound, CCOc1cc(CCNC(=O)C[C@H]2S[C@@H](c3ccc(C#Cc4ccccc4)cc3)N(c3cccc(C(N)=O)c3)C2=O)ccc1OC [Reference compound, reference compound] , is 182

microsomal CLint at 0.8 μM recorded for this compound, [2H]C([2H])(NC(=O)C[C@H]1S[C@@H](c2ccc(C#Cc3ccccc3)cc2)N(c2cccc(C(N)=O)c2)C1=O)C([2H])([2H])c1ccc(O)c(OC)c1 (single isomer, unassigned) , is 67

microsomal CLint at 0.8 μM recorded for this compound, [2H]c1c([2H])c([2H])c(C#Cc2ccc([C@@H]3S[C@H](CC(=O)NC([2H])([2H])C([2H])([2H])c4ccc(OC)c(OCC)c4)C(=O)N3c3cccc(C(N)=O)c3)cc2)c([2H])c1[2H] (single isomer, unassigned) , is 181

microsomal CLint at 0.8 μM recorded for this compound, [2H]C([2H])([2H])Oc1ccc(C([2H])([2H])C([2H])([2H])NC(=O)C[C@H]2S[C@@H](c3ccc(C#Cc4ccccc4)cc3)N(c3cccc(C(N)=O)c3)C2=O)cc1OC , is 111

microsomal CLint at 0.8 μM recorded for this compound, [2H]C([2H])([2H])Oc1ccc(CCNC(=O)C[C@H]2S[C@@H](c3ccc(C#Cc4ccccc4)cc3)N(c3cccc(C(N)=O)c3)C2=O)cc1OCC (single isomer, unassigned) , is 208

These measurements were taken from patent US20150111933A1.
